meta.source: patent US20230406921A1

# experimental.system: T1, recombinant antigen of the extracellular region of CD47 (Sino Biological, Cat: 12283-H08H) (human, UniProt Q08722 19-139)
# T1 construct: extracellular domain; also called recombinant CD47 extracellular region; CD47 recombinant protein
# T1 sequence (Q08722 19-139 limits assumed): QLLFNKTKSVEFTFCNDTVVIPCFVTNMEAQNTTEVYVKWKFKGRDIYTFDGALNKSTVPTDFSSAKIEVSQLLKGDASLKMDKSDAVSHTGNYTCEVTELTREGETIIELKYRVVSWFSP
# assay.name: Fortebio BLI, recombinant CD47
pKd: −log10 of the molar value.
Classify by measured pKd: fulfilled if it is equal to or exceeds 8, not fulfilled if it is smaller.

binder	assigned.class
hz140-Hm13/hz182-Lm5 (antibody, V domains shown) VH: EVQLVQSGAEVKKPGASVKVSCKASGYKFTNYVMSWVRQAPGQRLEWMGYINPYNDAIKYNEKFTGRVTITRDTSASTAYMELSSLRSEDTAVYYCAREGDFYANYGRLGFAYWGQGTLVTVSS VL: DIQMTQSPSSLSASVGDRVTITCRASQDISNYLNWYQQKPGKAPKLLLYYTSRLHSGVPSRFSGSGSGTDYTLTISSLQPEDFATYFCQQGDGRPYTFGGGTKVEIKR	not fulfilled
hz140-Hm13/hz182-Lm10 (antibody, V domains shown) VH: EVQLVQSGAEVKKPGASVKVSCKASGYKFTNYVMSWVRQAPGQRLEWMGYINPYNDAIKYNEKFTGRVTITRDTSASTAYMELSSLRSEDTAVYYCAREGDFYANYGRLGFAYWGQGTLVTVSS VL: DIQMTQSPSSLSASVGDRVTITCRASQDISNYLNWYQQKPGKAPKLLLYYTSRLHSGVPSRFSGSGSGTDYTLTISSLQPEDIATYFCQQGAGFPYTFGGGTKVEIKR	fulfilled
hz140-Hm13/hz182-Lm11 (antibody, V domains shown) VH: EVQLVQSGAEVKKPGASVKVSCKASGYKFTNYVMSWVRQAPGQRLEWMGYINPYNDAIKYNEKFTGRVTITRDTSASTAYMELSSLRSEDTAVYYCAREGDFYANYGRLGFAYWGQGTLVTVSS VL: DIQMTQSPSSLSASVGDRVTITCRASQDISNYLNWYQQKPGKAPKLLLYYTSRLHSGVPSRFSGSGSGTDYTLTISSLQPEDIATYFCQQGDTFPYTFGGGTKVEIKR	not fulfilled
hz140-Hm13/hz182-Lm2 (antibody, V domains shown) VH: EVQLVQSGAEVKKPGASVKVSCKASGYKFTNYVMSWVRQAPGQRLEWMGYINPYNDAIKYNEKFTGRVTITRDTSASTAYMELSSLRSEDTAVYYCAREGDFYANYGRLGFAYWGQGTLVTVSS VL: DIQMTQSPSSLSASVGDRVTITCRASQDISNYLNWYQQKPGKAPKLLLYYTSRLHSGVPSRFSGSGSGTDYTFTISSLQPEDFATYFCQQGAGRPYTFGGGTKVEIKR	not fulfilled
